# Test system: NCI-H226 lung
# test_summary: NCI-60 one-dose screen, 48 h (100 = growth as untreated, 0 = no growth, -100 = all killed)
# particulars: 10 µM unless noted
About 83,000 compounds went through this panel and 20% of them were active in at least one assay; those are over-represented in the sample as a whole.
// map growth onto a label; ranges one (below 60%), two (60% to below 90%), three (90% or more)

Examples from the recorded data:
INSERT INTO results (compound, class_name) VALUES
  ('CCCCCCCCCCCCCCCC(=O)OCC1OC(n2cnc3c(=S)nc(N)[nH]c32)C(OC(=O)CCCCCCCCCCCCCCC)C1OC(=O)CCCCCCCCCCCCCCC (stereo unspecified)', 'two'),
  ('COc1ccc(-c2nn(-c3ccccc3)cc2/C=C/C(=O)OCc2cn(-c3ccc(F)c(Cl)c3)nn2)cc1', 'two'),
  ('CCOC(=O)N1CCN(c2nc(Nc3cc(C)[nH]n3)c3ccccc3n2)CC1', 'one'),
  ('O=C(N/N=C/c1ccc(O)cc1O)c1cccnc1', 'two'),
  ('O=C(O)C(O)C(O)C(=O)O.[NH-]C1CCCCC1[NH-].[Pt+2] (stereo unspecified)', 'three');

Input line: Exam item: assign "COc1ccc(/C=C2\CN(C(=O)CCN3CCC(=NO)CC3)C/C(=C\c3ccc(OC)cc3)C2=O)cc1" to the correct category.
Output line: two

Input line: Record "CNc1nc(C)c(-c2nc(Nc3cccc(S(N)(=O)=O)c3)ncc2F)s1" — which class?
Output line: one

Input line: Could you place "O=C1c2cccnc2C(=O)c2c1c(C(=O)OCCN1CCCCC1)c1ccccn21" in its proper category? Many thanks.
Output line: one

Input line: Band assignment needed for "Cc1ccc2cnc(N)c(C#Cc3cncc(C(=O)Nc4ccc(CN5CCN(C)CC5)c(C(F)(F)F)c4)c3)c2c1" please.
Output line: one

Input line: Categorize the following entry: CCCCCCCCCCCCS(=O)CC(C)O (stereo unspecified)
Output line: three

Input line: Please indicate the class for "CSc1nc(NCCCNc2ccnc3cc(Cl)ccc23)cc(-c2ccccc2)n1" based on its growth.
Output line: two

Input line: Would you mind sorting "O=S(=O)(NCCCNc1cc(-c2cn(-c3ccccc3)nc2-c2ccccc2)ccn1)c1ccc(C(F)(F)F)cc1" into the appropriate category?
Output line: one

Input line: Consider "Cc1ccc(N)cc1F" . To which growth class does it belong?
Output line: three

Input line: Would you mind sorting "COc1cc(OC)c(/C=C/S(=O)(=O)Cc2cnc(OC)c(N)c2)c(OC)c1" into the appropriate category?
Output line: two

Input line: Which growth category applies to O=[N+]([O-])c1cccc(C2CC(c3ccccc3)=Nc3ccccc3S2)c1 (stereo unspecified) here?
Output line: three

Input line: Entry "CC[C@H](CO)Nc1nc(NCc2ccccc2)n2ncc(C(C)C)c2n1" belongs to which category?
Output line: one

Input line: Field: class (growth) — entry: "O=C(CN1CCN(c2cc3c(cc2F)c(=O)c(C(=O)N/N=C/c2ccccc2)cn3C2CC2)CC1)N/N=C\c1ccccc1"
Output line: two

Input line: For "COc1cccc(NC(=O)c2sc3nc4c(cc3c2N)CN(Cc2ccccc2)CC4)c1" , which growth bin applies?
Output line: one

Input line: Tag the class for "N#Cc1c2c(nc3n[nH]c(N)c13)CCCC2"
Output line: three

Input line: Assign a bin to "O=c1ccc2cc3ccccc3cc2[nH]1"
Output line: three

Input line: Please report the category associated with Cc1nc2sc(C(=O)Nc3cccc4c3OCCO4)c(N)c2cc1C(C)O (stereo unspecified) , nothing else.
Output line: one

Input line: Which of the defined bands does the recorded growth of "COc1cc(OC)c(/C=C/C(=O)c2c(OC)cc(OC)cc2OC)c(OC)c1" sit within?
Output line: one

Input line: Place this compound in its band: "CC/C(Cc1ccccc1)=C(\c1ccc(OCCN2CCCC2)cc1)c1ccc(OC(C)=O)cc1"
Output line: three

Input line: Bin? O=C1CC(c2nc3ccccc3[nH]2)CN1C1CCCCC1 (stereo unspecified)
Output line: three

Input line: Textbook exercise: identify the category of the compound given here, "O=C1C(Cl)=C(Cl)C(=O)c2c1nc1n2CCCC1" , according to its measured value.
Output line: three

Input line: Returns: class label. Input: CCCCCCCCCCCCCCCCCCNC(=O)[C@H]1CSC(c2ccc(F)c(OC)c2)N1 (stereo partly specified)
Output line: one

Input line: Looking at "Cc1cc(-c2nc3ccccc3s2)ccc1NC(=O)COc1ccc(Cl)cc1" , which class would you pick?
Output line: two

Input line: Using the reported growth, which band applies to N#CC1=C(N)Oc2c(ccc3ccccc23)C1c1cccs1 (stereo unspecified) ?
Output line: one
